Biological target: UniProt P28223
Assay: R-SAT functional assay at 5-HT2A
Type: cell-based
Design: expressed in transfected cells; host or cells: NIH-3T3
Conditions: Table 1; negative logarithm of EC50 in molar (M); NIH3T3 cells; mean ± SEM; read-out: R-SAT pEC50 (converted)
experimental readout: EC50

compound | EC50
CCCN1CCCC(c2cccc(O)c2)C1 (single isomer, unassigned; (+)) [(+)-3-PPP] | 6.31e-06 M

Value lookup for EC50; key = NCCc1c[nH]c2ccc(C(N)=O)cc12 [5-CT, 5-carboxamidotryptamine, reference compound]
6.31e-08 M

====

Molecular target: D2 receptors (Homo sapiens, UniProt P14416)
Sequence (P14416 1-414 isoform P14416-2): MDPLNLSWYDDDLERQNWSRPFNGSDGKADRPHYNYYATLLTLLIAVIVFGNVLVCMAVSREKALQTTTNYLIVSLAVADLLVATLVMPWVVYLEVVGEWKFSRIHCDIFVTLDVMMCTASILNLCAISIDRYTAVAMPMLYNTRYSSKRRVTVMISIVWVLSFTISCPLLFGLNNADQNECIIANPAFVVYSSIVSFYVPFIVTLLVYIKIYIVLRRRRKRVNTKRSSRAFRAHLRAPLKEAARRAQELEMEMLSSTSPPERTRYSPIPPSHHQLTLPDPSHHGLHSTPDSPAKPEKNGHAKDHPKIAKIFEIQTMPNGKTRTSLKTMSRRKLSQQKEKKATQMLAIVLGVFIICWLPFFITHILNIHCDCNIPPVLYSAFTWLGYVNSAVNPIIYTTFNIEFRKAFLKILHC
Test: BRET2 beta-arrestin-2 recruitment assay at D2
Type: cell-based
Parameters: expressed in transfected cells; host or cells: HEK-293T
experimental readout: agonist profile in BRET2 assays at D2 receptors

molecule | reported
CCCN1C[C@H](CSC)C[C@@H]2c3cccc4[nH]cc(c34)C[C@H]21 [Pergolide] | partial agonists
CCCN1CCCC(c2cccc(O)c2)C1 (single isomer, unassigned; (+)) [(+)-3-PPP] | partial agonists

====

Biological target: human 5-HT2A receptors (Homo sapiens, UniProt P28223)
Sequence (P28223 whole entry): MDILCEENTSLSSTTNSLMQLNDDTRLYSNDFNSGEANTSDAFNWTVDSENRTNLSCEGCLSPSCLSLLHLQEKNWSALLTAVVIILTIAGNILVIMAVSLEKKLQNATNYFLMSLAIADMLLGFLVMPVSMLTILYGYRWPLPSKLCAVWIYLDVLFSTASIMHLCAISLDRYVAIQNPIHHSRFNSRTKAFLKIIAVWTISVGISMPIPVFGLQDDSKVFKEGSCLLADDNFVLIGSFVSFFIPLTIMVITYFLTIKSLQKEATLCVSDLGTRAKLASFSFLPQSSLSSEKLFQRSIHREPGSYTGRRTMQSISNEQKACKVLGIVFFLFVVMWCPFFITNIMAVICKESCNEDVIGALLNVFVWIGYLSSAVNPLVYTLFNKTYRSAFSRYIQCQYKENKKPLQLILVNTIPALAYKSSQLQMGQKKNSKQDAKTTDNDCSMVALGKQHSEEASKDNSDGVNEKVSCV
Assay: BRET2 beta-arrestin-2 recruitment assay at 5-HT2A
Assay type: cell-based
Parameters: expressed in transfected cells; host or cells: HEK-293T
Conditions: negative logarithm of EC50 in molar (M); HEK 293T cells; mean ± SEM; read-out: BRET2 pEC50 (converted)
The following molecules are listed with their measured EC50 values.

Dear colleague, I am looking for the recorded EC50 of the following molecule: NCCc1c[nH]c2ccc(C(N)=O)cc12 [5-CT, 5-carboxamidotryptamine, reference compound]
2e-07 M

Cool, now CCCN1CCCC(c2cccc(O)c2)C1 (single isomer, unassigned; (+)) [(+)-3-PPP]
> 0.0001 M

Please give the result for CCCN1CCC[C@H](c2cccc(S(C)(=O)=O)c2)C1 [(+)-OSU6162] too.
1.58e-05 M

Moving on to CCCN1CCC[C@@H](c2cccc(S(C)(=O)=O)c2)C1 [(−)-OSU6162]
1e-05 M

====

Biological target: D2 receptors (Homo sapiens, UniProt P14416)
Assay: GTPγS binding assay at D2
Type: biochemical
Set-up: expressed in transfected cells
Conditions: percent response of reference ligand dopamine; mean ± SEM
experimental readout: GTPγS Eff % (%)
Respond with the bare value in %.

Consider the worked cases shown below.
compound | target or test system | result units | reported
CCCN1CCCC(c2cccc(O)c2)C1 (single isomer, unassigned; (+)) [(+)-3-PPP] | D2 receptors (Homo sapiens, UniProt P14416) | % | 102
CCN(CC)C(=O)N[C@H]1C[C@@H]2c3cccc4[nH]cc(c34)C[C@H]2N(C)C1 [(+)-Terguride] | D2 receptors (Homo sapiens, UniProt P14416) | % | 88
CCCN1CCC[C@@H](c2cccc(S(C)(=O)=O)c2)C1 [(−)-OSU6162] | D2 receptors (Homo sapiens, UniProt P14416) | % | 37
CCCN1CCCC(c2cccc(O)c2)C1 (single isomer, unassigned; (-)) [(−)-3-PPP] | D2 receptors (Homo sapiens, UniProt P14416) | % | 77
Clc1ccc2c(c1)N=C(N1CCNCC1)c1ccccc1N2 | D2 receptors (Homo sapiens, UniProt P14416) | % | 18

Now look at this entry.
# get_value(readout='GTPγS Eff %', item= CCCN1C[C@H](CSC)C[C@@H]2c3cccc4[nH]cc(c34)C[C@H]21 [Pergolide] )
94
